- ASSAY_SETUP: in ethanol, 302.85 K
EXPERIMENTAL_ENDPOINT: solubility (mole fraction)

Consider the molecule ON(Cc1ccccc1)Cc1ccccc1 and give its measured solubility (mole fraction).
0.00543

---

- ASSAY_SETUP: in ethyl acetate, 308.05 K
EXPERIMENTAL_ENDPOINT: solubility (mole fraction)
Returns: the value as a bare number; no unit string appended.

Consider the compound ON(Cc1ccccc1)Cc1ccccc1 and give its measured solubility (mole fraction).
0.0395

---

- ASSAY_SETUP: in acetone, 283.45 K
EXPERIMENTAL_ENDPOINT: solubility (mole fraction)
Returns: the value as a bare number; no unit string appended.

Consider the compound ON(Cc1ccccc1)Cc1ccccc1 and give its measured solubility (mole fraction).
0.0124
